# test.system: T1, HLA-DRB1*13:02 (human)
# T1 construct: MHC class II molecule; how it was prepared for the assay is not described
# protocol.text: HLA class II competition binding assay
pIC50: −log10 of the molar value.
Measured pIC50 accompanies every entry in the list below.
quantity: pIC50

binder="RGLKLATALSLSNKF [ApoB100 peptide 3563.0020]" quantity=pIC50 recorded_value=8.96
binder="LIINWLQEALSSASL [ApoB100 peptide 3563.0015]" quantity=pIC50 recorded_value=7.92
binder="TLTAFGFASADLIEI [ApoB100 peptide 3563.0005]" quantity=pIC50 recorded_value=8.21
binder="LSQLQTYMIQFDQYI [ApoB100 peptide 3563.0012]" quantity=pIC50 recorded_value=7.46
